Procedure Summary: Chemical stability test in human plasma (enzymatic hydrolysis, HPLC-MS/MS)
Format: in vitro ADME
Condition Set: human, human plasma, human plasma spiked with equimolar mixture of the isomer pair, 1 μM each, 37 °C; LEDA195–221 matrix; read-out: Mix t1/2 ± 2SD
Endpoint Label: half-life at 1 µM (min)

>>> df
                                   compound  quantity_unit  readout_number
0  COc1cc(/C=C/C(=O)OCCCN(C)CCCCCCOC(=O)c2cc(OC)c(OC)c(OC)c2)cc(OC)c1OC [ELF94]            min              34
1  COc1cc(/C=C/C(=O)OCCCN(C)CCCCCOC(=O)c2cc(OC)c(OC)c(OC)c2)cc(OC)c1OC [FRA76]            min              32

###

Procedure Summary: Chemical stability test in human plasma (enzymatic hydrolysis, HPLC-MS/MS)
Type: in vitro ADME
Condition Set: human, human plasma, human plasma spiked with isomers mixture; LEDAall matrix (Table S4); read-out: LEDAall t1/2 ± 2SD
Procedure: The present investigation was carried out to evaluate the variation of hydrolytic activity of the human plasma enzymatic system when two potential substrates were simultaneously present. […] To correctly monitor this process, it must be possible to distinguish each isomer present in the sample, quantify it with the proper calibration curve and plot its degradation profile. […] The series of samples were prepared, as described in Section 4.6 and analyzed with the proper HPLC-MS/MS method. […]
Endpoint Label: half-life at 1 µM (min)

>>> df
                                 cpd_smiles  readout_number
0  COc1cc(/C=C/C(=O)OCCCN(C)CCCCCCOC(=O)c2cc(OC)c(OC)c(OC)c2)cc(OC)c1OC              34
1  COc1cc(/C=C/C(=O)OCCCN(C)CCCCCOC(=O)c2cc(OC)c(OC)c(OC)c2)cc(OC)c1OC              32

###

Procedure Summary: Chemical stability test in human plasma (enzymatic hydrolysis, HPLC-MS/MS)
Type: in vitro ADME
Condition Set: human plasma spiked with equimolar mixture of the isomer pair, 1 μM each, 37 °C; LEDA195–221 matrix
Protocol: The present investigation was carried out to evaluate the variation of hydrolytic activity of the human plasma enzymatic system when two potential substrates were simultaneously present. […] To correctly monitor this process, it must be possible to distinguish each isomer present in the sample, quantify it with the proper calibration curve and plot its degradation profile. […] The series of samples were prepared, as described in Section 4.6 and analyzed with the proper HPLC-MS/MS method. […]
Endpoint Label: Mix k ± 2SD (degradation rate)

Look over these answered cases.
>>> print(df.to_string())
                                 cpd_smiles                  endpoint_label                     result
0  COc1cc(/C=C/C(=O)OCCCN(C)CCCCCCOC(=O)c2cc(OC)c(OC)c(OC)c2)cc(OC)c1OC  Mix k ± 2SD (degradation rate)  −0.023 ± 0.005 ln(μM)/min
1  COc1cc(/C=C/C(=O)OCCCN(C)CCCCCOC(=O)c2cc(OC)c(OC)c(OC)c2)cc(OC)c1OC  Mix k ± 2SD (degradation rate)  −0.019 ± 0.003 ln(μM)/min
2  COc1cc(/C=C/C(=O)OCCCCCN(C)CCCOC(=O)c2cc(OC)c(OC)c(OC)c2)cc(OC)c1OC  Mix k ± 2SD (degradation rate)          <0.006 ln(μM)/min

Proceeding to the next compound to report its Mix k ± 2SD (degradation rate).
Query :: Any idea what its Mix k ± 2SD (degradation rate) is? The compound is COc1cc(/C=C/C(=O)OCCCCCCN(C)CCCOC(=O)c2cc(OC)c(OC)c(OC)c2)cc(OC)c1OC
Result :: <0.006 ln(μM)/min
